# Test system: Streptococcus Pheumoniae GYR 1171
# Protocol: In vitro antibacterial activity, agar dilution MIC
# Assay type: cell-based
# Recorded Conditions: Streptococcus Pheumoniae GYR 1171 (organism code YY); BHI agar, 35-37 °C, 20 to 24 hours; unit assumed
Recorded MIC for the following molecules

Solved cases (3 shown):
Substance Smiles: C=CCN(C)[C@H]1C[C@@H](C)O[C@@H](O[C@@H]2[C@@H](C)C(=O)[C@@H](C)C(=O)O[C@H](CC)[C@@]3(C)OC(=O)N[C@@H]3[C@@H](C)C(=O)[C@H](C)C[C@@]2(C)OCC=Cc2cnc3ccccc3c2)[C@@H]1O
MIC: ≤ 4 ng/mL
--
Substance Smiles: C=C(C)CN(C)[C@H]1C[C@@H](C)O[C@@H](O[C@@H]2[C@@H](C)C(=O)[C@@H](C)C(=O)O[C@H](CC)[C@@]3(C)OC(=O)N[C@@H]3[C@@H](C)C(=O)[C@H](C)C[C@@]2(C)OCC=Cc2cnc3ccccc3c2)[C@@H]1O
MIC: ≤ 4 ng/mL
--
Substance Smiles: CC[C@H]1OC(=O)[C@H](C)C(=O)[C@H](C)[C@@H](O[C@@H]2O[C@H](C)C[C@H](N(C)CC=Cc3ccccc3)[C@H]2O)[C@](C)(OCC=Cc2cnc3ccccc3c2)C[C@@H](C)C(=O)[C@H](C)[C@H]2NC(=O)O[C@@]21C
MIC: ≤ 15 ng/mL

Then there is this molecule:
// returns reported MIC for input `C=C(CN(C)[C@H]1C[C@@H](C)O[C@@H](O[C@@H]2[C@@H](C)C(=O)[C@@H](C)C(=O)O[C@H](CC)[C@@]3(C)OC(=O)N[C@@H]3[C@@H](C)C(=O)[C@H](C)C[C@@]2(C)OCC=Cc2cnc3ccccc3c2)[C@@H]1O)C(=O)OC`
≤ 4 ng/mL
